Assay: in vitro
Details: human, plasma
observable: fraction unbound

compound: CC(C)NCC(O)COc1cccc2ccccc12 (centres unmarked) [Propranolol, reference compound]
observable: fraction unbound
obs-value: 0.207
//
compound: O=C(C[n+]1cn(Cc2cccc(Cn3c[n+](CC(=O)c4ccc([N+](=O)[O-])cc4)c4ccccc43)n2)c2ccccc21)c1ccc([N+](=O)[O-])cc1.[Br-].[Br-]
observable: fraction unbound
obs-value: 0.078

====

Test system: Mtb H37Rv
Assay: Primary screen: MIC, IC50 and IC90 under aerobic conditions
Format: cell-based
Details: Mycobacterium tuberculosis
Recorded MIC values for a group of molecules are listed next.

substance-smiles: COc1ccc(C(=O)C[n+]2cn(Cc3cccc(Cn4c[n+](CC(=O)c5ccc(OC)cc5)c5ccccc54)n3)c3ccccc32)cc1
prefix-operator: =
MIC, µM: 58

substance-smiles: O=C(C[n+]1cn(Cc2cccc(Cn3c[n+](CC(=O)c4ccc([N+](=O)[O-])cc4)c4ccccc43)n2)c2ccccc21)c1ccc([N+](=O)[O-])cc1.[Br-].[Br-]
prefix-operator: =
MIC, µM: 24

substance-smiles: O=C(C[n+]1ccn(Cc2cccc(Cn3cc[n+](CC(=O)c4ccc(Cl)cc4)c3)n2)c1)c1ccc(Cl)cc1
prefix-operator: =
MIC, µM: 51

substance-smiles: COc1ccc(C(=O)C[n+]2ccn(Cc3cccc(Cn4cc[n+](CC(=O)c5ccc(OC)cc5)c4)n3)c2)cc1
prefix-operator: >
MIC, µM: 200

substance-smiles: COC(=O)C[n+]1cn(Cc2cccc(Cn3c[n+](CC(=O)OC)c4ccccc43)n2)c2ccccc21
prefix-operator: >
MIC, µM: 200

substance-smiles: c1cc(Cn2ccnc2)nc(Cn2ccnc2)c1
prefix-operator: >
MIC, µM: 200

substance-smiles: O=C(C[n+]1cn(Cc2cccc(Cn3c[n+](CC(=O)c4ccccc4)c4ccccc43)n2)c2ccccc21)c1ccccc1.[Br-].[Br-]
prefix-operator: =
MIC, µM: 56

substance-smiles: COC(=O)C[n+]1ccn(Cc2cccc(Cn3cc[n+](CC(=O)OC)c3)n2)c1
prefix-operator: >
MIC, µM: 200

substance-smiles: O=C(C[n+]1ccn(Cc2cccc(Cn3cc[n+](CC(=O)c4ccc([N+](=O)[O-])cc4)c3)n2)c1)c1ccc([N+](=O)[O-])cc1.[Br-].[Br-]
prefix-operator: =
MIC, µM: 58

substance-smiles: O=[N+]([O-])c1cn(Cc2cccc(Cn3cnc([N+](=O)[O-])c3)n2)cn1
prefix-operator: =
MIC, µM: 92

substance-smiles: NC(=O)C[n+]1ccn(Cc2cccc(Cn3cc[n+](CC(N)=O)c3)n2)c1
prefix-operator: >
MIC, µM: 200

substance-smiles: O=C(C[n+]1cn(Cc2cccc(Cn3c[n+](CC(=O)c4ccc(Cl)cc4)c4ccccc43)n2)c2ccccc21)c1ccc(Cl)cc1
prefix-operator: =
MIC, µM: 17

substance-smiles: NC(=O)C[n+]1cn(Cc2cccc(Cn3c[n+](CC(N)=O)c4ccccc43)n2)c2ccccc21
prefix-operator: >
MIC, µM: 200

substance-smiles: c1cc(Cn2cnc3ccccc32)nc(Cn2cnc3ccccc32)c1
prefix-operator: >
MIC, µM: 50

substance-smiles: O=C(C[n+]1ccn(Cc2cccc(Cn3cc[n+](CC(=O)c4ccccc4)c3)n2)c1)c1ccccc1
prefix-operator: >
MIC, µM: 200
